# Tested on: 349418-098-R-PDC complex spheroid viability;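 note: spheroids exposed to compound for seven days before viability readout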
# experimental protocol: Anticancer human tumor 349418-098-R-PDC patient-derived lung adenocarcinoma cell line growth inhibition [RAS]
# conditions: second compound 0.03 µM; first compound 0.0949 µM; stronger effect = lower value
assay metric: viability, T/C (%)
Report the value in % with no unit label.

Challenge: What does the data say about its viability, T/C? Entry: CCc1c2c(nc3ccc(O)cc13)-c1cc3c(c(=O)n1C2)COC(=O)[C@]3(O)CC + CCn1c(-c2cc(N3CCN(C)CC3)cnc2C(C)OC)c2c3cc(ccc31)-c1csc(n1)CC(NC(=O)C1CC1C)C(=O)N1CCCC(N1)C(=O)OCC(C)(C)C2
Response given: 2.72

Challenge: What does the data say about its viability, T/C? Entry: CC1(C)CCC(Nc2ncc(C(F)(F)F)c(-c3c[nH]c4c(P(C)(C)=O)c(C#N)ccc34)n2)CN1 (centres undefined) + CCn1c(-c2cccnc2C(C)OC)c2c3cc(ccc31)N1CCOC(CC(NC(=O)C(C(C)C)N(C)C(=O)C3(F)CCN(C(=O)C#CC(C)(C)N(C)C)CC3)C(=O)N3CCCC(N3)C(=O)OCC(C)(C)C2)C1
Response given: 9.21

Challenge: What does the data say about its viability, T/C? Entry: CC1(C)CCC(Nc2ncc(C(F)(F)F)c(-c3c[nH]c4c(P(C)(C)=O)c(C#N)ccc34)n2)CN1 (centres undefined) + CCn1c(-c2cc(N3CCN(C)CC3)cnc2C(C)OC)c2c3cc(ccc31)-c1csc(n1)CC(NC(=O)C1CC1C)C(=O)N1CCCC(N1)C(=O)OCC(C)(C)C2
Response given: 8.18

Challenge: What does the data say about its viability, T/C? Entry: CCc1c2c(nc3ccc(O)cc13)-c1cc3c(c(=O)n1C2)COC(=O)[C@]3(O)CC + CCn1c(-c2cccnc2C(C)OC)c2c3cc(ccc31)N1CCOC(CC(NC(=O)C(C(C)C)N(C)C(=O)C3(F)CCN(C(=O)C#CC(C)(C)N(C)C)CC3)C(=O)N3CCCC(N3)C(=O)OCC(C)(C)C2)C1
Response given: 2.57
